The measurements presented in this section are drawn from paper PMC5540273.

Tested on: ROCK2
Conditions: concentration: 1 μM, replicates: in singlicate; n = 1;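 note: KINOMEscan kinase panel screen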
metric: %Inh (%)

>>> data_value("COc1cc(Nc2nccc(N3CCC(NC(=O)c4cc5ccccc5s4)C3)n2)cc(OC)c1OC (centres unmarked)")
14
>>> data_value("COc1cc2c(cc1OCCN1CCNCC1)ncc1c3ccc(C#N)cc3[nH]c21")
99.7
>>> data_value("c1ccc(Oc2ccc(Nc3ccnc4cc(-c5ccc(CNCCN6CCOCC6)o5)ccc34)cc2)nc1")
40
>>> data_value("O=C(Nc1n[nH]c2nc(-c3ccc(O)cc3)ccc12)C1CC1")
0
>>> data_value("Cc1occc1-c1ncc(OC[C@@H](N)Cc2c[nH]c3ccccc23)cc1-c1ccc2[nH]nc(C)c2c1.O=C(O)C(F)(F)F")
79
>>> data_value("O=C(Nc1cccc(-c2nn3ccccc3c2-c2ccnc(Nc3cccc(C(F)(F)F)c3)n2)c1)c1c(F)cccc1F")
1
>>> data_value("C[C@@H]1CC[C@@H](C(=O)Nc2ccccc2)CN1c1cc(-c2ccc3c(N)n[nH]c3c2)nc(N)n1")
35
>>> data_value("CC(=O)Nc1nc2cnc(Nc3cc(NC(=O)c4cccc(C5(C#N)CC5)c4Cl)ccc3C)nc2s1")
0

###

Tested on: MEK6
Construct: gene MAP2K6
Conditions: concentration: 1 μM, replicates: in singlicate; n = 1
metric: %Inh (%)

>>> data_value("CCn1c(-c2nonc2N)nc2c(C#CC(C)(C)O)nc(OC[C@H](N)c3ccccc3)cc21")
0
>>> data_value("COc1cc(Nc2nccc(-c3c(-c4cccc(NC(=O)c5c(F)cccc5F)c4)nn4ncccc34)n2)cc(OC)c1OC")
51
>>> data_value("CCc1ccc(-c2ccc3c(c2)-c2c(cnn2C)S(=O)(=O)N3C)cc1")
0
>>> data_value("CN(C)S(=O)(=O)c1cc(-c2ccc3nccc(-c4cccc(S(N)(=O)=O)c4)c3c2)cnc1N")
0
>>> data_value("Cc1cccc(Nc2nc(N[C@H]3CCNC3)ncc2C(N)=O)c1.Cl")
50
>>> data_value("Cc1ccc(C)c(NC(=O)NC2CCN(c3ccnc(Nc4ccc(F)cc4)n3)C2)c1 (centres unmarked)")
0
>>> data_value("Cc1ccc(C(=O)Nc2ccc(Nc3ccnc4cc(-c5nccs5)ccc34)cc2O)cc1.Cl")
0
>>> data_value("CC(C)(C)c1ccc2nccc(Nc3cccc(O)c3)c2c1")
0

###

Tested on: PRKD2
Settings: concentration: 1 μM, replicates: in singlicate; n = 1
metric: %Inh

>>> data_value("Cc1ccc(C(=O)Nc2ccc(Nc3ccnc4cc(-c5nccs5)ccc34)cc2O)cc1.Cl")
"2%"
>>> data_value("COc1cc(Nc2nccc(-c3c(-c4cccc(NC(=O)c5c(F)cccc5F)c4)nn4ncccc34)n2)cc(OC)c1OC")
"14%"
>>> data_value("CN(C)Cc1ccc(-c2ccc3c(Nc4ccc(Oc5ccccn5)cc4)ccnc3c2)o1")
"4%"
>>> data_value("c1ccc(-c2cnc3nccnn23)cc1")
"0%"
>>> data_value("Cc1cccc(NC(=O)Nc2ccc(Oc3ncnc4ccn(C)c34)cc2)c1")
"0%"
>>> data_value("Cc1ccc(C)c(NC(=O)NC2CCN(c3ccnc(Nc4ccc(F)cc4)n3)C2)c1 (stereo not drawn)")
"0%"
>>> data_value("Clc1ccc(-c2nn3ncccc3c2-c2ccnc(Nc3ccc4c(c3)OCCO4)n2)cc1")
"1%"
>>> data_value("Cn1cc(-c2ccc3c(c2)CCN3C(=O)Cc2cccc(F)c2)c2c(N)ncnc21")
"0%"
>>> data_value("Nc1ncc(-c2cccnc2)c2scc(-c3ccc4c(c3)CCN4C(=O)Cc3ccccc3)c12")
"73%"

###

System: CSNK1A1
Conditions: concentration: 1 μM, replicates: in singlicate; n = 1
metric: %Inh (%)

>>> data_value("Cc1ccc(F)c(C(=O)Nc2cccc(-c3nn4ccccc4c3-c3ccnc(Nc4cccc(F)c4)n3)c2)c1F")
41
>>> data_value("COc1ccc(Nc2nccc(NCCNC(=O)c3cc4ccccc4s3)n2)cc1")
0
>>> data_value("CCn1c(-c2nonc2N)nc2c(C#CC(C)(C)O)ncc(OCCCCN)c21.O=C(O)C(F)(F)F.O=C(O)C(F)(F)F")
19
>>> data_value("Clc1ccc(-c2nn3ncccc3c2-c2ccnc(Nc3ccc4c(c3)OCCO4)n2)cc1")
77
>>> data_value("Nc1ncc(-c2cccnc2)c2scc(-c3ccc4c(c3)CCN4C(=O)Cc3ccccc3)c12")
4
>>> data_value("COc1ccc(-c2coc3ccc(-c4nnc(SCc5ccc(OC)c(C(F)(F)F)c5)o4)cc23)cc1")
0
>>> data_value("COc1cccc(C2=C(Nc3ccc(Cl)c(C(=O)O)c3)C(=O)NC2=O)c1")
0
>>> data_value("CCCCc1nn2ncccc2c1-c1ccnc(Nc2ccc(N3CCN(C)CC3)cc2)n1")
93.1
>>> data_value("COc1cc(Nc2nccc(-c3c(-c4cccc(NC(=O)c5c(F)cccc5F)c4)nn4ncccc34)n2)cc(OC)c1OC")
0
>>> data_value("Nc1ncc(-c2ccc3nccc(-c4ccncc4)c3c2)cc1S(=O)(=O)N1CCOCC1")
3
>>> data_value("CN1CCN(CCCNc2nccc(-c3c(-c4ccc(F)cc4)nn4cc(C(F)(F)F)ccc34)n2)CC1")
83
>>> data_value("COc1ccc(Nc2nccc(N3CCC(NC(=O)Nc4cccc(OC)c4)C3)n2)cc1 (stereo not shown)")
0
>>> data_value("O=C(Nc1cccc(-c2nn3ccccc3c2-c2ccnc(Nc3cccc(F)c3)n2)c1)c1c(F)ccc(F)c1Cl")
2
>>> data_value("Cl.Cl.NCC(NC(=O)c1cc(-c2ccccc2)c(-c2ccnc3[nH]ccc23)s1)c1ccccc1 (stereo not shown)")
95.7
>>> data_value("Cc1ccc(C(=O)N2CC[C@@H](O)C2)cc1-n1c(C)cc(OCc2ccc(F)cc2F)c(Br)c1=O")
0
>>> data_value("O=C(Nc1cccc(-c2nn3ccccc3c2-c2ccnc(Nc3cccc(C(F)(F)F)c3)n2)c1)c1c(F)cccc1F")
16

###

Tested on: PRKCH
Conditions: concentration: 1 μM, replicates: in singlicate; n = 1
Parameter: %Inh. Scope: all listed entries.
metric: %Inh (%)

>>> data_value("Cl.c1ccc(-c2ccc3c(Nc4ccc5[nH]ccc5c4)ccnc3c2)nc1")
12
>>> data_value("Cl.Cl.NCC(NC(=O)c1cc(-c2ccccc2)c(-c2ccnc3[nH]ccc23)s1)c1ccccc1 (centres unmarked)")
86
>>> data_value("CCn1c(-c2nonc2N)nc2c(C#CC(C)(C)O)ncc(OCCCCN)c21.O=C(O)C(F)(F)F.O=C(O)C(F)(F)F")
97.7
>>> data_value("O=C(Nc1ccccc1F)NC1CCN(c2ccnc(Nc3ccc(F)cc3)n2)CC1")
0
>>> data_value("Cn1cc(-c2[nH]c3cc(NC(=O)[C@H](N)C4CCCCC4)cc4c3c2C=NNC4=O)cn1")
53
>>> data_value("CN1CCN(Cc2cccc(-c3ccc4c(Nc5ccc(Oc6ccccc6)cc5)ccnc4c3)c2)CC1")
2
>>> data_value("Cl.NC(=O)c1cccc(Nc2nccc(Nc3ccc(Oc4c(Cl)cccc4Cl)c(Cl)c3)n2)c1")
0
>>> data_value("O=C(Nc1n[nH]c2cc(-c3ccoc3)ccc12)C1CC1")
0
>>> data_value("Cl.Cl.NCC(C(=O)Nc1cc(Br)c(-c2ccnc3[nH]ccc23)s1)c1ccccc1 (centres unmarked)")
63
>>> data_value("Cc1cccc(NC(=O)Nc2ccc(Oc3ncnc4ccn(C)c34)cc2)c1")
0
>>> data_value("C[C@@H]1CC[C@@H](C(=O)Nc2ccccc2)CN1c1cc(-c2ccc3c(N)n[nH]c3c2)nc(N)n1")
14
>>> data_value("CCc1ccc(-c2ccc3c(c2)-c2c(cnn2C)S(=O)(=O)N3C)cc1")
0
>>> data_value("Cc1ccc(C(=O)N2CC[C@@H](O)C2)cc1-n1c(C)cc(OCc2ccc(F)cc2F)c(Br)c1=O")
0
>>> data_value("O=C(NC1CCN(c2ccnc(Nc3ccc(F)cc3)n2)C1)c1cc2ccccc2s1 (centres unmarked)")
30
>>> data_value("O=C(Nc1n[nH]c2nc(-c3ccc(O)cc3)ccc12)C1CC1")
19
>>> data_value("CC(=O)Nc1nc2cnc(Nc3cc(NC(=O)c4cccc(C5(C#N)CC5)c4Cl)ccc3C)nc2s1")
0
>>> data_value("COc1ccc(Nc2nccc(NCCNC(=O)c3cc4ccccc4s3)n2)cc1")
0

###

System: DYRK1A
Settings: concentration: 1 μM, replicates: in singlicate; n = 1
Class (required): determined from %Inh; valid ranges are b0: < 3%; b1: ≥ 3% and < 20%; b2: ≥ 20%

>>> cat("CN(C)S(=O)(=O)c1cc(-c2ccc3nccc(-c4cccc(S(N)(=O)=O)c4)c3c2)cnc1N")
"b2"
>>> cat("Nc1ncc(-c2cccnc2)c2scc(-c3ccc4c(c3)CCN4C(=O)Cc3ccccc3)c12")
"b2"
>>> cat("COc1ccc(CNC(=O)NC2CCN(c3ccnc(Nc4ccc(F)cc4)n3)CC2)cc1")
"b0"
>>> cat("CN1CCN(CCCNc2nccc(-c3c(-c4ccc(F)cc4)nn4cc(C(F)(F)F)ccc34)n2)CC1")
"b1"
>>> cat("COc1cccc(C2=C(Nc3ccc(Cl)c(C(=O)O)c3)C(=O)NC2=O)c1")
"b1"
>>> cat("c1ccc(-c2n[nH]cc2Nc2ccnc3ccccc23)nc1")
"b2"
>>> cat("O=C(Nc1cccc(Oc2ccc3nc(NC(=O)C4CC4)cn3n2)c1)c1ccccc1C(F)(F)F")
"b1"
>>> cat("CCc1ccc(-c2ccc3c(c2)-c2c(cnn2C)S(=O)(=O)N3C)cc1")
"b0"
>>> cat("O=C(O)C(F)(F)F.O=C(O)C(F)(F)F.O=c1[nH]ccc2nc(N[C@@H]3CCCNC3)nc(Nc3ccc(S(=O)(=O)N4CCOCC4)cc3)c12")
"b2"
>>> cat("O=C(Nc1ccccc1F)NC1CCN(c2ccnc(Nc3ccc(F)cc3)n2)CC1")
"b1"
>>> cat("Nc1ncnc2c1nc(-c1ccccc1)n2-c1ccccc1")
"b1"
>>> cat("CCn1c(-c2nonc2N)nc2c(C#CC(C)(C)O)ncc(OCCCCN)c21.O=C(O)C(F)(F)F.O=C(O)C(F)(F)F")
"b2"
>>> cat("FC(F)(F)c1ccc(/C=C/c2cncnc2Nc2ccc3[nH]c(Cc4ccccc4)nc3c2)cc1")
"b0"
>>> cat("COc1cc2c(cc1OCCN1CCNCC1)ncc1c3ccc(C#N)cc3[nH]c21")
"b2"
>>> cat("COc1ccc(-c2coc3ccc(-c4nnc(SCc5ccc(OC)c(C(F)(F)F)c5)o4)cc23)cc1")
"b0"
>>> cat("Cc1cccc(NC(=O)Nc2ccc(Oc3ncnc4ccn(C)c34)cc2)c1")
"b0"
